// data source = paper PMC6152024

Assay protocol: In vivo pharmacokinetic study of DCCTX and Gom A in rats
Condition parameters: Sprague-Dawley, rat, plasma, iv, 300 mg/kg, Group 2: CTX 300 mg/kg i.v. 0.5 h after Gom A 20.8 mg/kg i.g., read-out: AUC0–8h
Outcome measure: AUC(0-t) (ng·h/mL)
Answers are plain numbers, in ng·h/mL.

Request: Which AUC(0-t) is listed for O=P1(NCCCl)NCCCO1 (stereo not shown) [DCCTX, 2-dechloroethylcyclophosphamide] ?
Response: 8900
